Provenance of the data: paper PMC3566393

measured on: rat TRPV1 (Rattus norvegicus)
measurement notes: Vanilloid-induced 45Ca2+ uptake in TRPV1/HaCaT cells
Assay type: cell-based
condition info: read-out: IC50 of Co2+; in the presence of 0.0625 μM CAPS
measured attribute: pIC50
Entry type: numeric. Quantity: pIC50, the -log10 of concentration in molar units.

## Task Dear colleague, please send me the reported pIC50 for [Co+2] when you can.
## Result 4.02

----------
measured on: rat TRPV1 (Rattus norvegicus, UniProt O35433)
Sequence (O35433 whole entry): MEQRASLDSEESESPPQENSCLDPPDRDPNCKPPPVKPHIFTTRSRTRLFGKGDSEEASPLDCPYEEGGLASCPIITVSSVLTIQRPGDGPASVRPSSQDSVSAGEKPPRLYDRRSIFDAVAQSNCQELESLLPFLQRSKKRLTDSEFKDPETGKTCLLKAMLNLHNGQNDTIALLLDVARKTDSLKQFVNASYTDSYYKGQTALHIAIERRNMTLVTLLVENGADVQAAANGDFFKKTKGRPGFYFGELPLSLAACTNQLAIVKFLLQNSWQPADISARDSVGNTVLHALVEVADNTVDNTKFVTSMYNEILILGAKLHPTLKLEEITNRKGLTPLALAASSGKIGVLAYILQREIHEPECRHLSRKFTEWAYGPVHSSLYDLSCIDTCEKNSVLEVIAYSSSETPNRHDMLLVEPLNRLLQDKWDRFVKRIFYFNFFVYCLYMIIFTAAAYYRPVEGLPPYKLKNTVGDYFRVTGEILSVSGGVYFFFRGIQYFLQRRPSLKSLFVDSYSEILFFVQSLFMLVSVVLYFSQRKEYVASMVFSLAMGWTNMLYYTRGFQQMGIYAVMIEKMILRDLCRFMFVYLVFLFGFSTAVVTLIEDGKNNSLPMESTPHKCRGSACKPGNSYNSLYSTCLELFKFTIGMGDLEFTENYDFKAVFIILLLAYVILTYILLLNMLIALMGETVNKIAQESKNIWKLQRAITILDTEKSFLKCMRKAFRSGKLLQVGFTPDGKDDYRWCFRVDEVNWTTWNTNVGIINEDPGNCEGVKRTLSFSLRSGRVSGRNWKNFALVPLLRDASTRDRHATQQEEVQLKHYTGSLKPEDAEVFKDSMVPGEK
measurement notes: Vanilloid-induced 45Ca2+ uptake in TRPV1/HaCaT cells
Format: cell-based
condition info: read-out: IC50 of Co2+; in the presence of 31.25 μM cold Ca2+
measured attribute: IC50 (µM)
Field format: number, assumed µM, no unit text.

## Task Dear colleague, please send me the reported IC50 for [Co+2] when you can.
## Result 72.7

----------
measured on: rat TRPV1 (Rattus norvegicus, UniProt O35433)
measurement notes: Vanilloid-induced 45Ca2+ uptake in TRPV1/HaCaT cells
Format: cell-based
condition info: read-out: IC50 of Co2+; in the presence of 0.125 μM CAPS
measured attribute: IC50 (µM)
Field format: number, assumed µM, no unit text.

## Task Dear colleague, please send me the reported IC50 for [Co+2] when you can.
## Result 58

----------
Consider the following compounds; for each one, report its pIC50.
measured on: wild-type TRPV1 (Rattus norvegicus)
measurement notes: CAPS-evoked 45Ca2+ influx in cells transiently transfected with wild-type TRPV1
condition info: read-out: IC50, 45Ca2+ influx, 4 μM CAPS
Entry type: numeric. Quantity: pIC50, the -log10 of concentration in molar units.

## Task Dear colleague, please send me the reported pIC50 for [Co+2] when you can.
## Result 4.74

## Task Dear colleague, please send me the reported pIC50 for N.N.N.N.N.N.N.N.N.N.N.N.N.N.[Cl-].[Cl-].[Cl-].[Cl-].[Cl-].[Cl-].[O-2].[O-2].[Ru+3].[Ru+3].[Ru+4] [RuRed, Ruthenium Red, reference compound] when you can.
## Result 6.06
